Tested on: HepG2
experiment: GSK_TCMDC: Percent inhibition of human HepG2 cell line. Test compounds present at 10uM.
Format: functional
quantity name: Inhibition (%)

INSERT INTO results (molecule, readout_value) VALUES
  ('CC(C)(C)c1cc(Cl)cc(C(=O)Nc2cc([N+](=O)[O-])ccc2Cl)c1O', 79),
  ('Cc1ccc(CNC(=O)c2ccc(CN3CCCN(Cc4ccsc4)CC3)cc2)cc1.O=C(O)C(F)(F)F', 16),
  ('CC1CN(c2cnn(Cc3ccc(NC(=O)Nc4cccc(C(F)(F)F)c4)cc3)c(=O)c2Cl)CC(C)N1.O=C(O)C(F)(F)F (stereo unspecified)', 0),
  ('CN(C)CCCn1cncc1-c1ccc2ncnc(Nc3ccc(OCc4ccccc4)cc3)c2c1', 37),
  ('COc1cccc(Nc2nc(C)cc(NC3CCCC3)n2)c1', 41),
  ('O=C(O)C(F)(F)F.c1cc(CN2CCN(c3ccncc3)CC2)cc(-c2cccc(-c3nc4ccccc4[nH]3)c2)c1', 35),
  ('O=C(Nc1ccc(-c2cccc(-c3nc4ccccc4[nH]3)c2)cc1)NC1CC1c1ccccc1 (stereo unspecified)', 63),
  ('CCCCN(CCCC)C(=O)CC(O)c1cc2c(Cl)cc(Cl)cc2c2cc(C(F)(F)F)ccc12 (stereo unspecified)', 0),
  ('COc1ccccc1NC(=O)Nc1ccc(-c2ccc(-c3nc4cc(C(F)(F)F)ccc4[nH]3)cc2)cc1', 52),
  ('O=C(/C=C/c1ccc(Cl)cc1)NCCCCCN1CCCC(C(=O)Nc2cccc(Cl)c2)C1 (stereo unspecified)', 21),
  ('O=C(O)C(F)(F)F.O=S(=O)(NCCN1CCCC1)c1ccc(-c2cccc(CNCCc3cccs3)c2)s1', 39),
  ('COc1ccc2ncc(Cl)c(CCN3CCC(NCc4ccc5c(n4)NC(=O)CS5)CC3)c2c1.Cl', 26),
  ('CS(=O)(=O)CCNCc1nc(-c2ccc3c(Nc4ccc(F)c(O)c4)ccnc3c2)cs1', 0),
  ('FC(F)(F)c1ccc2[nH]c(-c3ccc(-c4cccc(CN5CCCCC5)c4)cc3)nc2c1.O=C(O)C(F)(F)F', 22),
  ('NCC1CCCN1Cc1ccc(-c2cccc(-c3nc4cc(F)ccc4[nH]3)c2)cc1.O=C(O)C(F)(F)F (stereo unspecified)', 38),
  ('CCCCNC[C@@H](O)[C@H](Cc1ccccc1)NC(=O)c1cc2c3c(c1)c(CC)cn3CCS(=O)(=O)N2C.O=CO', 0),
  ('CCN(CC)CCOc1c(Cl)cc(Cl)cc1CNCCCNc1cc(=O)c2ccccc2[nH]1', 11),
  ('CC1(C)N=C(N)N=C(N)N1c1ccc(Cl)cc1.O=C(O)c1cc2ccccc2c(Cc2c(O)c(C(=O)O)cc3ccccc23)c1O', 42),
  ('O=C(Nc1cccc(-c2ccc(-c3nc4cc(F)ccc4[nH]3)cc2)c1)c1ccoc1', 39),
  ('COc1ccc(S(=O)(=O)NC2CCN(c3cc(C)nc(Nc4cccc(C#N)c4)n3)CC2)cc1.O=C(O)C(F)(F)F', 9),
  ('Cn1c(-c2ccccc2)cc2c3c(N)nc(N)nc3ccc21', 27),
  ('CCCCCCCCOc1ccc(N2C(N)=NC(N)=NC2(C)C)cc1.Cl', 31),
  ('CCOC(=O)C(NC(=O)Cc1ccccc1)C(C)C (stereo unspecified)', 39),
  ('C=CCNC(=O)C(C)c1ccc2cc(OC)ccc2c1 (stereo unspecified)', 4),
  ('O=C(/C=C/c1cccc(C(F)(F)F)c1)NCCCCCN1CCN(C(=O)Nc2ccc(Cl)c(Cl)c2)CC1.O=C(O)C(F)(F)F', 29),
  ('O=C(Cc1cccc2ccccc12)NC1CCN(c2ccnc3cc(Cl)ccc23)C1.O=C(O)C(F)(F)F (stereo unspecified)', 13),
  ('Oc1ccc(-c2cncc(NCc3ccc(F)c(F)c3)c2)cc1', 0),
  ('CC1CN(c2ncc(-c3ccc(CNC4Cc5ccccc5C4)cc3)cn2)CC(C)N1.O=CO (stereo unspecified)', 27),
  ('CC[C@H](NC(=O)c1c(CC2CCN(CC(C)=O)CC2)c(-c2ccccc2)nc2ccccc12)c1ccccc1', 7),
  ('Cc1cc(N)c2cc(NC(=O)c3cc(C(F)(F)F)cc(C(F)(F)F)c3)ccc2n1.Cl', 100),
  ('CCN(CCCN1CCCCC1)c1cc(C)nc(Nc2ccc(C)c(Br)c2)n1.O=C(O)C(F)(F)F', 42),
  ('CO/C(=C\C=C\c1cc2cc(Cl)c(Cl)cc2[nH]1)C(=O)NCCN1CCCCC1', 16),
  ('N#Cc1ccccc1N1CCN(C2CCC(NC(=O)c3n[nH]c4cc(C(F)(F)F)ccc34)CC2)CC1 (stereo unspecified)', 15),
  ('CC(C)(C)c1cc(C(=O)Nc2cccnc2)cc(C(=O)Nc2cccnc2)c1', 0),
  ('CC[C@H](C)CNC(=O)c1cccc(-c2ccc(CN3CCC(N4CCCC4)CC3)cc2)n1.O=C(O)C(F)(F)F', 41),
  ('Cn1c(NC(=O)C2CCC(CNC(=O)c3ccc(O)c(-c4ccc(Cl)c(Cl)c4)c3)CC2)nc2ccccc21 (stereo unspecified)', 40);

Cited source for all entries: ChEMBL document CHEMBL1157539
